meta.source: ChEMBL document CHEMBL5154668

experiment: Dissociation constant, pKa of the compound by potentiometric titration method; format: physicochemical
parameter: pKa

Here's what some known entries look like.
compoundSmiles: C[C@@]1(c2cc(-c3cc4c(cn3)OC(F)(F)O4)ccc2F)CC[C@@](C)(S(=O)(=O)C(F)(F)F)C(N)=N1
pKa: 7.4

compoundSmiles: C[C@@]1(S(C)(=O)=O)CC[C@@](CF)(c2nc(-c3cnc(OCF)cn3)ccc2F)N=C1N
pKa: 7.6

compoundSmiles: C[C@@]1(c2nc(-c3ccc(F)cn3)cs2)CC[C@@](C)(S(C)(=O)=O)C(N)=N1
pKa: 7

a. COc1cnc(-c2ccc(F)c([C@]3(C(F)F)CC[C@@](C)(C#N)C(N)=N3)c2)cn1
b. CN(C)C(=O)[C@]1(C)CC[C@@](CF)(c2cc(-c3ccc(F)cn3)ccc2F)N=C1N
query: Record comparison, field pKa: mark the lower of a and b . The response must carry the label of the picked entry.
result: a

====

assay: Apparent permeability in MDCK-MDR1 cells; assay type: ADME, cell-based, Canis lupus familiaris; details: dog
parameter: Papp (×10⁻⁶ cm/s)

compoundSmiles: CN(C)C(=O)[C@]1(C)CC[C@@](CF)(c2cc(-c3ccc(F)cn3)ccc2F)N=C1N
parameter: Papp
endpointResult: 2.7

A. COc1cnc(-c2ccc(F)c([C@]3(C(F)F)CC[C@@](C)(C#N)C(N)=N3)c2)cn1
B. C[C@@]1(c2nc(-c3ccc(F)cn3)cs2)CC[C@@](C)(S(C)(=O)=O)C(N)=N1
query: Among A and B , which shows a numerically higher Papp result? Please indicate the selected item by its label.
result: A
(A: 54 ×10⁻⁶ cm/s, B: 37 ×10⁻⁶ cm/s)

====

Some compounds, each annotated with its measured IC50.
molecular target: Voltage-gated inwardly rectifying potassium channel KCNH2 (Homo sapiens)
Sequence (Q12809 whole entry): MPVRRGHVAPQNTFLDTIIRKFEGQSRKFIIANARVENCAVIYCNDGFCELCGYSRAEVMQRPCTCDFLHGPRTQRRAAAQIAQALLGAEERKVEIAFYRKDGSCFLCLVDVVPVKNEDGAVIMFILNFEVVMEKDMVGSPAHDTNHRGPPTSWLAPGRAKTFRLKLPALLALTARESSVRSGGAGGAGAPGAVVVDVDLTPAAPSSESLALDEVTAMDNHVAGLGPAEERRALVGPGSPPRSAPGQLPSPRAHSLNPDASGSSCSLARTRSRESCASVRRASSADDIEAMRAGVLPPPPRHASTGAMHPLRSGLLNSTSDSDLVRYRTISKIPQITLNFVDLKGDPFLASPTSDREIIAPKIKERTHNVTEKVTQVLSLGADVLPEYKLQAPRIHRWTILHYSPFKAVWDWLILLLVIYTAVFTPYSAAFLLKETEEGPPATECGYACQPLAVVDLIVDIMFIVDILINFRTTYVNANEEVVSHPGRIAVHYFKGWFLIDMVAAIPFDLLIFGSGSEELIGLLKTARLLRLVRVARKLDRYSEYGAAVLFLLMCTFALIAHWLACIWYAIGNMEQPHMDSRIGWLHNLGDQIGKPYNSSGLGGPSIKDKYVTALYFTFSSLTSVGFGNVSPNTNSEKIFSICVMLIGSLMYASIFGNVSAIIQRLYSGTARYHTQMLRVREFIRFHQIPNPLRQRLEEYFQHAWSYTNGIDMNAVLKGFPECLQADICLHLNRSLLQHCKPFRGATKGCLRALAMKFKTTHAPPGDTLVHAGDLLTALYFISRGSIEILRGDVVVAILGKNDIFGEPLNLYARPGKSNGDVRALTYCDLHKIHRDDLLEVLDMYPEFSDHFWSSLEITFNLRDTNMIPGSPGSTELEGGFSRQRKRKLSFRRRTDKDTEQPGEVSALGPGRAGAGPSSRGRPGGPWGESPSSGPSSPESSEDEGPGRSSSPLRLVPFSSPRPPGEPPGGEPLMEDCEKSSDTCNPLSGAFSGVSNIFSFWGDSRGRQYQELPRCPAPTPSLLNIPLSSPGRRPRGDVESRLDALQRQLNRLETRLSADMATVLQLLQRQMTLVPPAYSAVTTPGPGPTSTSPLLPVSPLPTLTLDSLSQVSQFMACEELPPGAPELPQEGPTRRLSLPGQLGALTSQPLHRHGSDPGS

Known results for compounds:
compoundSmiles: COc1cnc(-c2ccc(F)c([C@]3(C(F)F)CC[C@@](C)(C#N)C(N)=N3)c2)cn1
IC50: > 10 µM
--
compoundSmiles: CN(C)C(=O)[C@]1(C)CC[C@@](CF)(c2cc(-c3ccc(F)cn3)ccc2F)N=C1N
IC50: 8.32 µM

query: IC50 of C[C@@]1(c2cc(-c3cc4c(cn3)OC(F)(F)O4)ccc2F)CC[C@@](C)(S(=O)(=O)C(F)(F)F)C(N)=N1 on Voltage-gated inwardly rectifying potassium channel KCNH2 (Homo sapiens)?
result: > 10 µM

====

molecular target: Beta-secretase 1 (Homo sapiens, UniProt P56817); test: Inhibition of BACE1 (unknown origin)
Sequence (P56817 whole entry): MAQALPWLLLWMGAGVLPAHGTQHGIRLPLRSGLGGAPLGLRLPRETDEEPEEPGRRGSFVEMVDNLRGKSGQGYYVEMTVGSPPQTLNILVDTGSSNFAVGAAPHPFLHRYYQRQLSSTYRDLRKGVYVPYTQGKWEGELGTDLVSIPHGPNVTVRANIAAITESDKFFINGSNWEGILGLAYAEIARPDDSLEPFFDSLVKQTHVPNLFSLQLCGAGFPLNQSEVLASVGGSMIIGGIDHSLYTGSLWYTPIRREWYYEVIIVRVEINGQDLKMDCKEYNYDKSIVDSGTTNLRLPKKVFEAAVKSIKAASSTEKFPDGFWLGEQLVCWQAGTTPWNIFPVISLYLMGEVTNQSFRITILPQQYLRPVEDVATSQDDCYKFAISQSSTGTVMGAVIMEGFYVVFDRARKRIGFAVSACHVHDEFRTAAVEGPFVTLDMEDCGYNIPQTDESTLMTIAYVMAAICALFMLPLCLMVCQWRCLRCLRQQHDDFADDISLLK
parameter: IC50 (nM)

I. C[C@@]1(c2cc(-c3cnc(OCF)cn3)ccc2F)CCC(F)(F)C(N)=N1
II. C[C@@]1(c2cc(-c3ccc(Cl)cn3)ccc2F)CCC2(CC2)C(N)=N1
III. CC1CC[C@@](CF)(c2cc(-c3cc4c(cn3)OC(F)(F)O4)ccc2F)N=C1N (some centres not stated)
IV. C[C@@]1(c2cc(-c3cc4c(cn3)OC(F)(F)O4)ccc2F)CC[C@@](C)(S(=O)(=O)C(F)(F)F)C(N)=N1
query: Please put the 4 compounds above in a list ordered by falling IC50. Please reply with the labels ordered as requested. Many thanks.
result: III, II, I, IV

====

biological target: Beta-secretase 1 (Homo sapiens)
parameter: IC50 (nM)

I. NC1=N[C@](CF)(c2cc(-c3cnc(OCF)cn3)ccc2F)CCC1(F)F
II. CN(C)C(=O)[C@]1(C)CC[C@@](CF)(c2cc(-c3ccc(F)cn3)ccc2F)N=C1N
III. C[C@@]1(c2cc(NC(=O)c3ccc(F)cn3)ccc2F)CC[C@@](CF)(S(C)(=O)=O)C(N)=N1
query: Ascending by IC50, please: list the compounds accordingly. Use the labels to give the ranking in the order requested.
result: I, III, II
(I: 8.9 nM, III: 15 nM, II: 66 nM)
